Value source: patent US11407715B2

- System: Vero cells
- condition.set: African green monkey
Listing of entries alongside the reported CC50.
Enter your answer as a number in µM; do not include the unit.

Example results:
COc1cc(NC(C(=O)N2CCc3cc(F)c(OC(F)(F)F)cc32)c2ccc(Cl)cc2)cc(OCC2CC2C(=O)O)c1 (single isomer, unassigned) [Compound 26B]    12
COc1cc(NC(C(=O)N2CCc3cc(OC)c(C(F)(F)F)cc32)c2ccc(Cl)cc2)cc(OCCC(C)C(=O)O)c1 (single isomer, unassigned) [Compound 20C]    12
COc1cc(NC(C(=O)N2CCc3ccc(OC(F)(F)F)cc32)c2ccc(Cl)cc2OC)cc(OCCC(C)C(=O)O)c1 (single isomer, unassigned) [Compound 17B]    11
COc1cc(NC(C(=O)N2CCc3ccc(OC(F)(F)F)cc32)c2ccc(Cl)cc2OC)cc(OCCC(C)C(=O)O)c1 (single isomer, unassigned) [Compound 17C]    12
COc1cc(NC(C(=O)N2CCc3ccc(OC(F)(F)F)cc32)c2ccc(Cl)cc2)cc(OCC2CC2C(=O)O)c1 (stereo not drawn) [Compound 6BB]    12

CC50 reported for this molecule COc1cc(NC2CC(C(=O)O)C2)cc(NC(C(=O)N2CCc3ccc(OC(F)(F)F)cc32)c2ccc(Cl)cc2)c1 (single isomer, unassigned) [Compound 33C] : 19

CC50 reported for this molecule COc1cc(NC(C(=O)N2CCc3ccc(OC(F)(F)F)cc32)c2ccc(Cl)cc2)cc(OCC2(F)CC2C(=O)O)c1 (stereo not drawn) [Compound 28AB] : 13

CC50 reported for this molecule COc1cc(NC(C(=O)N2CCc3ccc(OC(F)(F)F)cc32)c2ccc(Cl)cc2)cc(OCC2(F)CC2C(=O)O)c1 (stereo not drawn) [Compound 28BA] : 10

CC50 reported for this molecule COc1cc(NC(C(=O)N2CCc3cc(OC)c(C(F)(F)F)cc32)c2ccc(Cl)cc2)cc(OC2CC(C(=O)O)C2)c1 (stereo not drawn) [Compound 23B] : 12

CC50 reported for this molecule COc1cc(NC(C(=O)N2CCc3ccc(OC(F)(F)F)cc32)c2ccc(Cl)cc2)cc(OCC2CC(C(=O)O)C2)c1 (stereo not drawn) [Compound 11B] : 11

CC50 reported for this molecule COc1cc(NC(C(=O)N2CCc3ccc(OC(F)(F)F)cc32)c2ccc(Cl)cc2)cc(OCCC(C)C(=O)O)c1 (single isomer, unassigned) [Compound 1A] : 9.6

CC50 reported for this molecule COc1cc(NC(C(=O)N2CCc3cc(F)c(OC(F)(F)F)cc32)c2ccc(Cl)cc2)cc(OCC2CC(C(=O)O)C2)c1 (stereo not drawn) [Compound 30B] : 11
